test: AUC in ddY mouse at 10 mg/kg, po measured after 3 mins by LC-MS/MS analysis; assay type: ADME, organism-based; set-up: time < 0.05 hr, dose 10 mg/kg, route oral; conditions: in vivo
Could you please report measured AUC at 0.05 h for the items listed next?
Supply the numeric figure in µM·h, leaving out any unit text.

**Query** For the compound CN1C(=O)c2[nH]c3ccccc3c2CN2CCC[C@H]1C2 , report AUC at 0.05 h.
**Result** 1.59

**Query** For the compound CN1C(=O)c2[nH]c3ccccc3c2CN2CC[C@@H]1C2.O=S(=O)(O)O , report AUC at 0.05 h.
**Result** 12.2

**Query** For the compound CN1C(=O)c2[nH]c3ccccc3c2CN2CCC1C2.O=S(=O)(O)O (racemic) , report AUC at 0.05 h.
**Result** 3.29

**Query** For the compound CN1C(=O)c2[nH]c3ccccc3c2CN2CC[C@H]1C2.O=S(=O)(O)O , report AUC at 0.05 h.
**Result** 5.8

* * *

experiment: Cmax in ddY mouse at 10 mg/kg, po measured after 3 mins by LC-MS/MS analysis; format: ADME, organism-based; design: dose 10 mg/kg, route oral; conditions: in vivo
Could you please report measured Cmax for the items listed next?
Supply the numeric figure in nM, leaving out any unit text.

**Query** For the molecule CN1C(=O)c2[nH]c3ccccc3c2CN2CCC1C2.O=S(=O)(O)O (racemic) , report Cmax.
**Result** 1460

**Query** For the molecule CN1C(=O)c2[nH]c3ccccc3c2CN2CC[C@@H]1C2.O=S(=O)(O)O , report Cmax.
**Result** 2990

**Query** For the molecule CN1C(=O)c2[nH]c3ccccc3c2CN2CCC[C@H]1C2 , report Cmax.
**Result** 720

**Query** For the molecule CN1C(=O)c2[nH]c3ccccc3c2CN2CC[C@H]1C2.O=S(=O)(O)O , report Cmax.
**Result** 2150

* * *

assay: 1-Octanol/phosphate buffered-saline distribution coefficient, logD of compound at pH 7.4; format: physicochemical
The threshold is inclusive: logD of exactly 0.9 counts as met; values below receive not met.

**Query** Can CCN1CCCC(=O)c2[nH]c3ccccc3c2C1 be said to have logD at or above 0.9?
**Result** met

**Query** Can CN1C(=O)c2[nH]c3ccccc3c2CN2CCC1C2.O=S(=O)(O)O (racemic) be said to have logD at or above 0.9?
**Result** not met

**Query** Can CN1CCCC(=O)c2[nH]c3ccccc3c2C1 be said to have logD at or above 0.9?
**Result** met

**Query** Can CC12CCCN(CC1)Cc1c([nH]c3ccccc13)C2=O (racemic) be said to have logD at or above 0.9?
**Result** met

**Query** Can CN1C(=O)c2[nH]c3ccccc3c2CN2CC[C@@H]1C2.O=S(=O)(O)O be said to have logD at or above 0.9?
**Result** not met

**Query** Can O=C1c2[nH]c3ccccc3c2CN2CCC3(CCCN13)C2 (racemic) be said to have logD at or above 0.9?
**Result** met

**Query** Can CN1C(=O)c2[nH]c3ccccc3c2CN2CCC1(C)C2 (racemic) be said to have logD at or above 0.9?
**Result** not met
